Target: UniProt:Q194T2
Sequence (Q194T2 whole entry): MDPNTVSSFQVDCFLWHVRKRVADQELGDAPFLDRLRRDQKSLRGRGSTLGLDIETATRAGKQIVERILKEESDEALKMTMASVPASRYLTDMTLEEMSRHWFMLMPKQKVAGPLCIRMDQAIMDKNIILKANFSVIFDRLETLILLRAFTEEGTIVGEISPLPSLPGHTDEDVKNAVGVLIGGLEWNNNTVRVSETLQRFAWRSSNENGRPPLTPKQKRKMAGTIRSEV
Format: functional, Influenza A virus (A/California/07/2009(H1N1))
Calls of active or inactive are those of the source.
measurement label: IC50

COc1ccc2nc3ccccc3nc2c1N :: 32.5 µM (active)

Identify measured IC50 associated with `O=[N+]([O-])c1ccc(O)c(/N=C/c2sc3ccccc3c2O)c1`
> 100 µM (active)

Consider the compound `C=CCN1C=C/C(=C\C=C(C#N)C#N)c2ccccc21` and give its recorded IC50.
14.2 µM (active)

Output measured IC50 for this item: `C/C(=N\NC(=O)c1ccc(F)cc1)c1ccccn1`
3 µM (active)

Query IC50 for `Cc1ccc(S(=O)(=O)/N=C2\C(=O)c3ccccc3C(O)=C2N2CCN(c3ccccc3F)CC2)cc1`
79.2 µM (active)

Write down IC50 measured for item `COc1ccccc1OCC(=O)N/N=C/c1cccc2cccnc12`
13.5 µM (active)

* * *

Each entry below carries its recorded EC50.
Assay: Luminescence Cell-Based Dose Response HTS to Identify Activators of Luciferase Translation or Activity in H4 […] Cells. [Related pubchem assays: 1829 (Project Summary), 1814 (Primary HTS)]
Format: functional
Active and inactive are the calls of the source.

The examples below pair each entry with its known result.
Cc1ccc(-c2nc3nc4ccccc4nc3n2Cc2ccco2)cc1 :: 13.2 µM (active)
O=C(NCCC1=CCCCC1)c1cnc2n(c1=O)CCS2 :: 39.9 µM (active)
Cc1ccc(-c2nn(-c3ccccc3)cc2C=C2C(=O)CC(C)(C)CC2=O)cc1 :: 0.454 µM (active)

Dear colleague, please send me the reported EC50 for O=C(NCCCC1CCCC1)C1CCC(=O)N(Cc2cccc(F)c2)C1 (configuration not stated) when you can.
> 120 µM (not active)

Give a short answer stating reported EC50 for `COc1ccc(/N=C/c2sc(O)c3ccccc23)cc1` .
< 0.1 µM (active)

Give the measured EC50 for `c1ccc(-c2noc(CC3CCCCC3)n2)cc1`
> 120 µM (not active)

Report EC50 for `CN(C)c1ccc(/C=N/NC(=S)NCc2ccco2)cc1`
8.41 µM (active)

* * *

Listing of recorded EC50 by entry.
Assay: NIH-3T3 fibroblast cytotoxicity, dose response, cytotoxicity control, cell-based, fluorescence, Alamar Blue, secondary assay (AID 2327);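 further: NIH-3T3 mouse fibroblasts cultured with fluconazole at 8 µg/mL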
Type: functional
Activity calls are given as the source filed them.

Answered examples (5):
CCc1ccc2oc(-c3ccc(OC)cc3)cc(=Nc3c(C)n(C)n(-c4ccccc4)c3=O)c2c1 :: > 160 µM (inactive)
CC(C)c1ccc2oc(-c3ccc(NC(=O)c4nc[nH]n4)cc3)nc2c1 :: > 160 µM (inactive)
CC(C)(C)c1csc(NC(=O)Cn2cnc3ccccc3c2=O)n1 :: > 150 µM (inconclusive)
Cc1ccccc1N1CCN(CCN2C(=O)CC(=C3c4ccccc4-c4ccccc43)C2=O)CC1 :: > 160 µM (inactive)
CCN1CCN(C(=O)c2ccc(CSc3ccc(C)cc3)cc2)CC1 :: > 150 µM (inactive)

Next molecule, EC50 to be filled in.
Annotate the molecule `C=CCNC(=S)N/N=C/c1ccc(-c2ccc(OC)cc2)o1` with its measured EC50.
> 150 µM (inactive)

* * *

Target: Aminopeptidase N (Plasmodium falciparum FcB1/Columbia, UniProt O96935)
Sequence (O96935 whole entry): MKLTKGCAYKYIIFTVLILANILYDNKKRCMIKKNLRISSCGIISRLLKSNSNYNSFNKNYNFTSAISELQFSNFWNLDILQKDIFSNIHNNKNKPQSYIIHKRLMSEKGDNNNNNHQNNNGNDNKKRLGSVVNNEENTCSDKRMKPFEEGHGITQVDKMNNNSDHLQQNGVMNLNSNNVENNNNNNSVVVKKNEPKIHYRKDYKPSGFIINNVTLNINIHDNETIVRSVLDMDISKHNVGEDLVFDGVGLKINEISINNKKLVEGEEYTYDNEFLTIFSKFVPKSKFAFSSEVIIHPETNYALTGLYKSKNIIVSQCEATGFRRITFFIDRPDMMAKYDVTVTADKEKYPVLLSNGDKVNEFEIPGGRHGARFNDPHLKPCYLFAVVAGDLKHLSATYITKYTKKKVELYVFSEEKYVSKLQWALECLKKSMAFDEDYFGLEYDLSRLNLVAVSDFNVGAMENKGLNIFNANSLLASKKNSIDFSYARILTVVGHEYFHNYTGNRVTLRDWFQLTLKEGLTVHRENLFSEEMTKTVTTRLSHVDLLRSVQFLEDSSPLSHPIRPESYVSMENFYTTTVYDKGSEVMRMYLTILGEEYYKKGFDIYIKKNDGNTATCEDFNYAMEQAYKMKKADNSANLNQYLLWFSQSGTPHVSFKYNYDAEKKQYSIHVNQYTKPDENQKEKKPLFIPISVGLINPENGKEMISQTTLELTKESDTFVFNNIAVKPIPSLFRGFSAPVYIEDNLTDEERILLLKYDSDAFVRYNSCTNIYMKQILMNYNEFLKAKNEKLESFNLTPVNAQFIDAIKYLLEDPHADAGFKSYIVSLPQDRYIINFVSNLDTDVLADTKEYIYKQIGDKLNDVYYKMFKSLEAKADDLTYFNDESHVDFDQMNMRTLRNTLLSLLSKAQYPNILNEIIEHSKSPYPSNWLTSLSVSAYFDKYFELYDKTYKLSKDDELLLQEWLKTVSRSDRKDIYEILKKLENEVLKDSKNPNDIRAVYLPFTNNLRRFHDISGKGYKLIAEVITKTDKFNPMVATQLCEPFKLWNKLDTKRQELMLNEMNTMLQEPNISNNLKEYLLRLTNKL
Assay: P. falciparum M1AAP inhibitors, biochemical, fluorogenic H-Leu-NHMec substrate, 1536-well (AID 1445)
Set-up: species or system Plasmodium falciparum 3D7, 3D7
Calls of active or inactive are those of the source.
measurement label: IC50

These recorded examples may help you get a feel for the data.
COC(=O)c1c(-c2ccc(C(C)(C)C)cc2)csc1NC(=O)C1C2CCC(O2)C1C(=O)O (centres undefined) :: 79.5 µM (active)
O=C(O)c1cccc(Nc2nc(-c3cccnc3)nc3ccccc23)c1 :: 79.2 µM (active)
O=C(NCc1ccc2c(c1)OCO2)C1CCN(S(=O)(=O)c2cccs2)CC1 :: 26.7 µM (active)

Output measured IC50 for this item: `O=C(CN1CCC(NC(=O)c2ccccc2)CC1)NCc1ccccc1F`
39.3 µM (active)
